target: cruzain (Trypanosoma cruzi); assay: biochemical; settings: read-out: Inhibition of cruzain or TbrCatL (either enzyme) in the initial screening, 5 µM; either cruzain or TbrCatL, with or without pre-incubation
Sequence (P25779 123-337 limits assumed): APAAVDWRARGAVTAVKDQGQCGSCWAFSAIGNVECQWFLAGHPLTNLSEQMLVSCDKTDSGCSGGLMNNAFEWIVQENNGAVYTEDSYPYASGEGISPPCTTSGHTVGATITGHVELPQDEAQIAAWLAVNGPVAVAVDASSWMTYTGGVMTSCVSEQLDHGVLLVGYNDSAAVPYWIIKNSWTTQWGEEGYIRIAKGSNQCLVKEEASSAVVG
RECORDED METRIC: inhibition at 5 µM

>>> df
                                        mol     recorded_metric  result
0  O=C(NCCN1CCCC1)c1cc(NCCN2CCOCC2)nc2ccc(Cl)cc12  inhibition at 5 µM   ≥ 40%
1  CN1CCN(CCCOc2ncc(Nc3ncc(-c4ccc(C(F)(F)F)c(F)c4)nc3C(N)=O)cn2)CC1  inhibition at 5 µM   ≥ 40%
2  N=C(N)Nc1ccc(-c2ccc(-c3ccc(NC(=N)N)c(Cl)c3)o2)cc1Cl  inhibition at 5 µM   ≥ 60%
3  Cn1ccnc1CNCCS(=O)(=O)c1cccc(Nc2ccc(-c3cccc(F)c3)cn2)c1  inhibition at 5 µM   ≥ 40%
4  COc1ccc(C2=NN(C3CCCCCC3)C(=O)C2(C)C)cc1OCCCCOc1ccc(-c2nn[nH]n2)cc1  inhibition at 5 µM   ≥ 40%
5  N=C(N)Nc1ccc(-c2ccc(-c3ccc(NC(=N)N)cc3Cl)o2)c(Cl)c1  inhibition at 5 µM   ≥ 60%
6  N#Cc1ccc(-c2cnc(N)c(-c3ccc(C(N)=O)cc3)n2)cc1  inhibition at 5 µM   ≥ 40%

Now turn to the next molecule.
q: Name the recorded inhibition at 5 µM for COc1cc(C2=NCCN2)cc2cc(-c3ccc(C4=NCCN4)cc3)oc12 .
a: ≥ 40%

* * *

biological target: TbrCatL (Trypanosoma brucei rhodesiense); construct: Conor Caffrey (University of California San Diego); experiment: TbrCatL enzymatic inhibition assay (cleavage of fluorogenic substrate Z-FR-AMC); format: biochemical; conditions: 0’ (pre-incubation time); sheet "Screening results";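 note: at 5 µM compound concentration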
Sequence (Q95PM0 entry or part of it): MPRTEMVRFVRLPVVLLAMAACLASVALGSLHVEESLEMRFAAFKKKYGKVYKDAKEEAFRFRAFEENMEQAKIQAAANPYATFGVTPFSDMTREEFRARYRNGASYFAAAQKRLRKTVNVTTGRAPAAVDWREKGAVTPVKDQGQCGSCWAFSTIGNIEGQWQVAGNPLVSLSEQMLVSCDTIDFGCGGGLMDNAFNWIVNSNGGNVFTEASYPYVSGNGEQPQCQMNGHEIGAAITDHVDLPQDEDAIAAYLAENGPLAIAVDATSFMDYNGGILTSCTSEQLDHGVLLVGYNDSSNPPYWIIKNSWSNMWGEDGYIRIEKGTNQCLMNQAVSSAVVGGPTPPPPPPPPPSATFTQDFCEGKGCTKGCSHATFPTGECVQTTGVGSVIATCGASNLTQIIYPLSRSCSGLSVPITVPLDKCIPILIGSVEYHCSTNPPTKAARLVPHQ
RECORDED METRIC: TbrCatL 0’ Inhibition (%)
Value expressed in %; do not type the unit.

Worked cases, answers included:
>>> df
                                   compound  unit_string  result_number
0  CC(C)(C)c1ccc(N[C@@H]2CCCC[C@H]2NC(=O)c2ccco2)cc1            %           -4.6
1  Cc1ccc2[nH]c(C3CCCNC3)c(-c3ccncc3)c2c1 (stereo not drawn)            %            -12
2        CCCCc1ccc(C(=O)Nc2nccc3ccccc23)nc1            %             -7

q: Look at this compound and give its reported TbrCatL 0’ Inhibition. O=C(NCc1cc(Cl)cc(Cl)c1)c1c(C(F)(F)F)nc2ccccn12
a: -1.6

q: Form field: reported TbrCatL 0’ Inhibition of COc1cc(OC)cc(C(=O)NCC2Cc3cc(Cl)cc(-c4ccncc4)c3O2)c1 (stereo not drawn)
a: 0.4

q: Item CCc1cc(=O)n(C)c(SC(C)C(=O)Nc2ccc(F)cc2)n1 (stereo not drawn) has what recorded TbrCatL 0’ Inhibition?
a: -11

q: Fill blank: measured TbrCatL 0’ Inhibition of the compound COc1cccc(OC)c1C(=O)Nc1ccc(Cl)c(-c2nc3ccccc3s2)c1 is ____.
a: 4

q: Entry COc1ccc(-c2onc(C(F)(F)F)c2-c2ccc(Cl)cc2)c(O)c1 has what TbrCatL 0’ Inhibition?
a: 0

q: // TbrCatL 0’ Inhibition lookup, key: COc1ccc(-c2nnc3ccc(-c4cccc(C(C)C)c4)cn23)cc1OC
a: -19
